Hello, the source for this data is paper PMC5838147, in case you need it.

# ASSAY CONTEXT: mouse, in vivo, po, 3 mg/kg
Where a SMILES comes first, the peptide text is derived from it. [ ]: non-standard residue; d: D form. NMeL = CN[C@@H](CC(C)C)C(=O)O; dNMeL = CN[C@H](CC(C)C)C(=O)O; Abu = CC[C@H](N)C(=O)O
EXPERIMENTAL READOUT: Tmax (min)
Answer with a number only, understood to be in min.

>  <COMPOUND>
CC[C@@H]1NC(=O)[C@H]2CCCN2C(=O)[C@H](CC(C)C)NC(=O)[C@H](CC(C)C)N(C)C(=O)[C@@H](CC(C)C)N(C)C(=O)[C@H](CC(C)C)NC1=O [(4), [Abu-Leu-NMe-D-Leu-NMe-Leu-Leu-D-Pro]] (cyclo([Abu]L[dNMeL][NMeL]L[dP]))

>  <Tmax [min]>
18

$$$$

Entry CC(C)C[C@@H]1NC(=O)[C@H](C)NC(=O)[C@H]2CCCN2C(=O)[C@H](CC(C)C)NC(=O)[C@H](CC(C)C)N(C)C(=O)[C@@H](CC(C)C)N(C)C1=O [(5), [Ala-Leu-NMe-D-Leu-NMe-Leu-Leu-D-Pro]] (cyclo(AL[dNMeL][NMeL]L[dP])) has what Tmax?
18
